Data origin: ChEMBL document CHEMBL4118077

Tested on: DU-145
method-summary: Antiproliferative activity against human DU145 cells after 48 hrs by MTT assay
Assay type: functional, cell-based
measurement-conditions: DU-145, 48 h
One threshold, 3 µM, splits the recorded IC50 values: lower ones are rule met, equal or higher ones are rule not met.

Ask: Answer whether the compound CCOC(=O)c1nc(NC(=O)Cn2cc(C(=O)C(=O)Nc3ccccc3)c3ccccc32)sc1C has IC50 strictly less than 3 µM
Reply: rule met

Ask: Now consider O=C(Cn1cc(C(=O)C(=O)NC2CC2)c2ccccc21)Nc1nc(-c2ccccc2)cs1 and answer again.
Reply: rule not met

Ask: Now consider O=C(Cn1cc(C(=O)C(=O)N2CCCCC2)c2ccccc21)Nc1nccs1 and answer again.
Reply: rule not met

Ask: Now consider COc1ccc2sc(NC(=O)Cn3cc(C(=O)C(=O)Nc4ccccc4)c4cc(Br)ccc43)nc2c1 and answer again.
Reply: rule not met

Ask: Now consider COc1ccc2sc(NC(=O)Cn3cc(C(=O)C(=O)N4CCCCC4)c4ccccc43)nc2c1 and answer again.
Reply: rule not met

Ask: Now consider COc1ccc2sc(NC(=O)Cn3cc(C(=O)C(=O)Nc4ccccc4)c4ccccc43)nc2c1 and answer again.
Reply: rule met

Ask: Now consider O=C(Cn1cc(C(=O)C(=O)NC2CC2)c2ccccc21)Nc1nccs1 and answer again.
Reply: rule not met

Ask: Now consider CCOC(=O)c1nc(NC(=O)Cn2cc(C(=O)C(=O)N3CCCCC3)c3ccccc32)sc1C and answer again.
Reply: rule not met

Ask: Now consider O=C(CCn1cc(C(=O)C(=O)N2CCCCC2)c2ccccc21)Nc1nc(-c2ccccc2)cs1 and answer again.
Reply: rule not met

---

Test system: HCT-15
method-summary: Antiproliferative activity against human HCT15 cells after 48 hrs by MTT assay
Type: functional, cell-based
measurement-conditions: HCT-15, 48 h
pIC50: −log10 of the molar value.
endpoint-label: pIC50

Ask: Missing value: pIC50, HCT-15, entry CCOC(=O)c1nc(NC(=O)Cn2cc(C(=O)C(=O)Nc3ccccc3)c3ccccc32)sc1C . Fill in?
Reply: 5.60

Ask: Now consider COc1ccc2sc(NC(=O)Cn3cc(C(=O)C(=O)NC4CC4)c4ccccc43)nc2c1 and answer again.
Reply: < 4.30

Ask: Now consider O=C(Cn1cc(C(=O)C(=O)N2CCCCC2)c2ccccc21)Nc1nccs1 and answer again.
Reply: < 4.30

Ask: Now consider CCOC(=O)c1nc(NC(=O)CCn2cc(C(=O)C(=O)N3CCCCC3)c3ccccc32)sc1C and answer again.
Reply: < 4.30

Ask: Now consider O=C(CCn1cc(C(=O)C(=O)N2CCCCC2)c2ccccc21)Nc1nccs1 and answer again.
Reply: < 4.30

Ask: Now consider COc1ccc2sc(NC(=O)CCn3cc(C(=O)C(=O)N4CCCCC4)c4ccccc43)nc2c1 and answer again.
Reply: < 4.30

Ask: Now consider CCOC(=O)c1nc(NC(=O)Cn2cc(C(=O)C(=O)NC3CC3)c3ccccc32)sc1C and answer again.
Reply: 4.99

Ask: Now consider Cc1ccc(-c2csc(NC(=O)CCn3cc(C(=O)C(=O)N4CCCCC4)c4ccccc43)n2)cc1 and answer again.
Reply: < 4.30

Ask: Now consider O=C(Cn1cc(C(=O)C(=O)N2CCCCC2)c2ccccc21)Nc1nc(-c2ccccc2)cs1 and answer again.
Reply: < 4.30

Ask: Now consider O=C(Cn1cc(C(=O)C(=O)Nc2ccccc2)c2ccccc21)Nc1nccs1 and answer again.
Reply: < 4.30

Ask: Now consider O=C(Cn1cc(C(=O)C(=O)Nc2ccccc2)c2cc(Br)ccc21)Nc1nccs1 and answer again.
Reply: < 4.30

Ask: Now consider O=C(CCn1cc(C(=O)C(=O)N2CCCCC2)c2ccccc21)Nc1nc(-c2ccccc2)cs1 and answer again.
Reply: < 4.30

Ask: Now consider COc1ccc2sc(NC(=O)Cn3cc(C(=O)C(=O)Nc4ccccc4)c4cc(Br)ccc43)nc2c1 and answer again.
Reply: 4.90

Ask: Now consider COc1ccc2sc(NC(=O)Cn3cc(C(=O)C(=O)Nc4ccccc4)c4ccccc43)nc2c1 and answer again.
Reply: 6.74

Ask: Now consider Cc1ccc(-c2csc(NC(=O)Cn3cc(C(=O)C(=O)Nc4ccccc4)c4cc(Br)ccc43)n2)cc1 and answer again.
Reply: < 4.30

Ask: Now consider COc1ccc2sc(NC(=O)Cn3cc(C(=O)C(=O)N4CCCCC4)c4ccccc43)nc2c1 and answer again.
Reply: < 4.30

Ask: Now consider O=C(Cn1cc(C(=O)C(=O)Nc2ccccc2)c2ccccc21)Nc1nc(-c2ccccc2)cs1 and answer again.
Reply: < 4.30
